Would you mind telling me the reported Kd of each entry?
# target.system: T1, ENAH EVH1 domain with Arg47 mutated to Ala (human, UniProt Q03173 1-111 (mouse entry))
# T1 construct: also called ENAH R47A; ENAH EVH1 R47A
# T1 sequence (Q03173 other isoform, or with tags, fused parts or gaps limits assumed, stated change not applied): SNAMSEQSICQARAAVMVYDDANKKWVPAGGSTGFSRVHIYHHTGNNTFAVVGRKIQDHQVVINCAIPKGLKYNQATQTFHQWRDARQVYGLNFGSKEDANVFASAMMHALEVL
# assay.summary: BLI, steady state; SUMO-peptide immobilised, EVH1 monomer in solution

Task: Please look up its Kd: LPP Duplicated peptide (biotinylated (BAP tag), Engineered variant, tested as a SUMO fusion) peptide: MAGGLNDIFEAQKIEWHEDTGGSSHHHHHHGSGSGSDSEVNQEAKPEVKPEVKPETHINLKVSDGSSEIFFKIKKTTPLRRLMEAFAKRQGKEMDSLTFLYDGIEIQADQTPEDLDMEDNDIIEAHREQIGGSGSGKQPGGEGDFLPPPPPPLDDSSALPSISGNDDSSALPSISGNFPPPPPL
Result: 54.2 µM

Task: Now the binder NHSL1 36mer peptide (biotinylated (BAP tag), Tested as a BAP-6xHis-SUMO-peptide fusion in BLI and ITC) peptide: MAGGLNDIFEAQKIEWHEDTGGSSHHHHHHGSGSGSDSEVNQEAKPEVKPEVKPETHINLKVSDGSSEIFFKIKKTTPLRRLMEAFAKRQGKEMDSLTFLYDGIEIQADQTPEDLDMEDNDIIEAHREQIGGSGSGADRSPFLPPPPPVTDCSQGSPLPHSPVFPPPPPEAL
Result: 55.4 µM

Task: For LPP Minimal peptide (biotinylated (BAP tag), Engineered variant, tested as a SUMO fusion) peptide: MAGGLNDIFEAQKIEWHEDTGGSSHHHHHHGSGSGSDSEVNQEAKPEVKPEVKPETHINLKVSDGSSEIFFKIKKTTPLRRLMEAFAKRQGKEMDSLTFLYDGIEIQADQTPEDLDMEDNDIIEAHREQIGGSGSGGDFLPPPPPPLGGGSGSGGGSGSFPPPPPL then?
Result: 124 µM
